Reference for the values: patent US20070191336A1

molecular target: phospho p-38 alpha kinase (Homo sapiens, UniProt Q16539); construct: purchased Panvera; experiment: P-38 alpha kinase assay (spectrophotometric, pyruvate kinase/lactate dehydrogenase coupled); assay type: biochemical; conditions: read-out: % Inhibition @ concentration, Table 3; at 1 uM
Sequence (Q16539 whole entry): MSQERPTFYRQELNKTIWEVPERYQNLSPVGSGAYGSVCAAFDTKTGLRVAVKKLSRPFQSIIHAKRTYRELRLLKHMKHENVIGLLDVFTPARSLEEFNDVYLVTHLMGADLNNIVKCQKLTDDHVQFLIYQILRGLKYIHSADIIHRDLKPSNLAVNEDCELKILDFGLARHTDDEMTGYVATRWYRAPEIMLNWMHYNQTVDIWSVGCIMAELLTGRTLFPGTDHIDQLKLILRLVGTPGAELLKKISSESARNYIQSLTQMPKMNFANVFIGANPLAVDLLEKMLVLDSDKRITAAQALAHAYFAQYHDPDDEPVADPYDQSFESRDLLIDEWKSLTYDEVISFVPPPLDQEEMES

# compound, inhibition at 1 µM (%)
data = [
    ("COc1ccc(-n2nc(C(C)(C)C)cc2NC(=O)Nc2ccccc2F)cc1", 63),
    ("CCOC(=O)Cc1cccc(-n2nc(C(C)(C)C)cc2NC(=O)Nc2ccc3c(c2)OCO3)c1", 74),
    ("CN1CCN(C(=O)NCc2cccc(-n3nc(C(C)(C)C)cc3NC(=O)Nc3ccc(Cl)cc3)c2)CC1", 36),
    ("Cc1cc(NC(=O)Nc2cccc3ccccc23)n(-c2ccc(C(O)C(F)(F)F)cc2)n1 (centres unmarked)", 3),
    ("COc1ccc(-n2nc(C(C)(C)C)cc2NC(=O)Nc2cccc(F)c2F)cc1", 69),
    ("COc1ccc(-n2nc(C(C)(C)C)cc2NC(=O)Nc2cccc(Cl)c2)cc1", 64),
    ("CC(C)(C)c1cc(NC(=O)Nc2cccc(Br)c2)n(-c2cccc(CN)c2)n1", 72),
    ("CC(C)(C)c1cc(NC(=O)Nc2cccc(Cl)c2Cl)n(-c2cccc(C(N)=O)c2)n1", 86),
]
